Reference source for all entries: paper PMC5487684

Assay: Plasma pharmacokinetics of ABX464 and ABX464-NGlc in HIV-infected subjects
Assay type: in vivo, human
Settings: human, plasma, po, 50 mg, HIV-infected, single oral 50mg (fasted), N 7; read-out: tmax, Mean
reported endpoint: Tmax (h)

[[record]]
smiles_input = "FC(F)(F)Oc1ccc(Nc2ccc3cccc(Cl)c3n2)cc1"
observed_measurement = 1.9


---

Test: Plasma pharmacokinetics of ABX464 and ABX464-NGlc in HIV-infected subjects
Assay type: in vivo, human
Details: human, plasma, po, 50 mg, HIV-infected, single oral 50mg (fasted), N 7; read-out: AUC0-∞, Mean
reported endpoint: AUC(0-inf)

[[record]]
smiles_input = "FC(F)(F)Oc1ccc(Nc2ccc3cccc(Cl)c3n2)cc1"
reported_endpoint = "AUC(0-inf)"
observed_measurement = "55.4 ng·h/mL"


---

Test: Plasma pharmacokinetics of ABX464 and ABX464-NGlc in HIV-infected subjects
Format: in vivo, human
Conditions: human, plasma, po, 50 mg, HIV-infected, single oral 50mg (fasted), N 7; read-out: Cmax, GM
reported endpoint: Cmax (ng/mL)

[[record]]
smiles_input = "FC(F)(F)Oc1ccc(Nc2ccc3cccc(Cl)c3n2)cc1"
observed_measurement = 14.9


---

Experiment: Plasma pharmacokinetics of ABX464 and ABX464-NGlc in HIV-infected subjects
Assay type: in vivo, human
Details: human, plasma, po, HIV-infected subjects, oral; read-out: half-life (t1/2) (converted)
Description: Plasma samples were analyzed for ABX464 and ABX464-NGlc using validated bioanalytical methods by Atlanbio (Saint Nazaire, France) according to good laboratory practices. Pharmacokinetic parameters were calculated by noncompartmental analysis (NCA), using Phoenix WinNonlin software (Pharsight Corporation) running on a personal computer. […] The HIV viral load was analyzed in the prequalified individual local study center laboratories. […]
reported endpoint: half-life

[[record]]
molecule = "FC(F)(F)Oc1ccc(Nc2ccc3cccc(Cl)c3n2)cc1 [ABX464]"
reported_endpoint = "half-life"
observed_measurement = "~1 h"

